B1: Homeobox protein cut-like 1, residues 941 to 1008; numbered along this chain, P39880 (parent)
chain: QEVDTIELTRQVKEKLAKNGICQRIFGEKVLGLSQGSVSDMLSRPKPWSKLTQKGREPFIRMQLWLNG

Variants of: B1
Assay: abundance fitness (aPCA) (normalised: wild type 0, dead -1); higher = more abundant; growth selection in yeast, the domain comes from the species named
Details: Homo sapiens
Class field: derived from abundance fitness; ranges low bracket = under -0.2, middle bracket = from -0.2 up to -0.1, high bracket = -0.1 and over

Before answering, review these 3 worked examples.
sequence_variant=I6L category="middle bracket"
sequence_variant=D4S category="low bracket"
sequence_variant=I21W category="high bracket"

Bin this entry: V38I
high bracket

Bin this entry: V38Q
low bracket

Bin this entry: S37N
high bracket

Bin this entry: E7I
low bracket

Bin this entry: I21G
low bracket

Bin this entry: K29G
middle bracket

Bin this entry: I21N
low bracket

Bin this entry: K15D
low bracket

Bin this entry: C22K
low bracket

Bin this entry: V12D
high bracket

Bin this entry: V3E
high bracket

Bin this entry: Q23F
low bracket

Bin this entry: M41K
high bracket

Bin this entry: P45A
low bracket

Bin this entry: D40E
high bracket

Bin this entry: P45C
middle bracket

Bin this entry: E28P
middle bracket

Where do the numbers come from? From the Human Domainome abundance scans (Beltran et al. 2025).
